The measured values listed here are drawn from patent US20080057063A1.

# Percent Inhibition (J6.77 adhesion to CS-1 peptide of fibronectin, 5 ug/ml) per record follows
# system_tested: α4β1 integrin (on J6.77 cells) (UniProt P13612 34-1032; P05556 21-798, limits assumed)
# experimental_details: cell-based or functional assay
Write down the numeric answer in % and omit the unit.

| binder | test_result |
| --- | --- |
| sc 161 (antibody, V domains shown) VH: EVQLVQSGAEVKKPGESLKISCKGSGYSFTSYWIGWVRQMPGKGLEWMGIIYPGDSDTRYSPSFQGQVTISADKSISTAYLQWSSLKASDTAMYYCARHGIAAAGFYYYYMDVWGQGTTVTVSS VL: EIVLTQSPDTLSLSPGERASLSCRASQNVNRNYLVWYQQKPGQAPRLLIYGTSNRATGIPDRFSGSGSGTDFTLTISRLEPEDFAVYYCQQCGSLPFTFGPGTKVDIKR | 12 |

Task item: For the binder shown here, sc 320 (antibody, V domains shown) VH: EVQLVESGGGLVKPGGSLRLSCAASGYTFTNYIMHWVRQAPGKGLEWVSSISISSSYIYYADSVKGRFTISRDNAKNSLYLQMNSLRAEDTAVYYCARDPVPLERRDYYYGMDVWGQGTTVTVSS VL: QSVLTQPPSMSAAPGQKVTISCSGSSSNIGNNYVSWYQQLPGTAPKLLIYDNNKRPSGIPDRFSGSKSGTSATLGITGLQTGDEADYYCGTWDSSLSAGVFGGGTKLTVL , give the reported Percent Inhibition (J6.77 adhesion to CS-1 peptide of fibronectin, 5 ug/ml).
Reply: -8

Task item: Same for sc 254 (antibody, V domains shown) VH: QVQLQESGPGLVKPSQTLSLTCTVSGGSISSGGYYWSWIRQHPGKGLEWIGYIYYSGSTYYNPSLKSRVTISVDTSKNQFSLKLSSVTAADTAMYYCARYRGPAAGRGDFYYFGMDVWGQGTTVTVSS VL: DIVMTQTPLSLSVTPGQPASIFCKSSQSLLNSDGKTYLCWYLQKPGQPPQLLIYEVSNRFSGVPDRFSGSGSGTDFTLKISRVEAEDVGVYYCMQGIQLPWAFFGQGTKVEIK
Reply: 0
